Molecular target: CD95/PLCγ1 interaction (Homo sapiens, UniProt P19174)
Construct: The PLCγ1-SH3 domain (aa 790-851) (C); expressed in transfected cells; host or cells: HEK293T
Sequence (P19174 790-851): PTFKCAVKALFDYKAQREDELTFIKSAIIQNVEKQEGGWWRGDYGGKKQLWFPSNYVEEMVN
Test: Renilla luciferase protein-fragment complementation assay (PCA), CD95-CID/PLCγ1-SH3
Format: cell-based
Settings: result in words
readoutKind: effect on interaction of CD95 with PLCγ1

O=C(O)c1cc(-c2ccc(F)cc2F)ccc1O | efficiently prevented
CN(CCOc1ccc(CC2SC(=O)NC2=O)cc1)c1ccccn1 (stereo not shown) | efficiently prevented
COc1ccc(-c2cc(=S)ss2)cc1 | efficiently prevented
COc1cccc2c1C(=O)c1c(O)c3c(c(O)c1C2=O)C[C@@](O)(C(C)=O)C[C@@H]3O[C@H]1C[C@H](N)[C@H](O)[C@H](C)O1 | efficiently prevented
